# assay-explanation: qHTS for inhibitors of binding or entry into cells for Marburg Virus; also: potency is read from the fitted curve at half-maximal effect
# experimental-context: Marburg virus pseudotyped entry inhibition, cell reporter; series mostly up to 37.8 µM
Hit rate of the full screen: of about 300,000 compounds, about 5,400 (1.8%) were called active. Inconclusive results (about 28%) are left out. This is one part of a sample in which actives are shown more often than they occur.
measurement-type: Potency

Check out these entries, answers already filled in.
{"molecule": "NCCCCCC(=O)N/N=C/c1ccc2nccnc2c1", "Potency": "2.82 µM (active)"}
{"molecule": "O=C(O)c1ccc(Cn2cnc3c(=S)nc[nH]c32)cc1", "Potency": "inactive"}
{"molecule": "COc1ccc(C2(c3ccc(OC)cc3)NC(=O)N(CC(=O)Nc3cc(C)on3)C2=O)cc1", "Potency": "inactive"}
{"molecule": "Cc1nc(CN(C)C(=O)CC2C(=O)NCCN2Cc2ccc(F)cc2)cs1 (stereo unspecified)", "Potency": "inactive"}

Value sought for every listed molecule: Potency.
1. COc1ccc(COC(=O)c2ccc(Cl)c(S(=O)(=O)N3CCOCC3)c2)cc1F
2. Cn1c(Cc2cccs2)nnc1SCC(=O)Nc1ccccc1
3. Cc1cccc(-n2c(SCC(N)=O)nc3c(c2=O)C2(CCCCC2)Cc2ccccc2-3)c1

Out:
1: inactive; 2: inactive; 3: 4.47 µM (active)

Value sought for every listed molecule: Potency.
1. Cc1cccc(-n2c(N)cc(=O)nc2SC(C)C(=O)NC2CCCCC2)c1 (stereo unspecified)
2. N[C@@H](Cc1ccccc1)C(=O)N1CCC(C(=O)NCC(=O)Nc2ccc(F)cc2)CC1
3. S=C(c1ccccc1)N1CCCC1
4. Cc1nc2cc3c(cc2s1)OCO3

Out:
1. inactive
2. inactive
3. inactive
4. inactive
